- tested-system: EGFR mutant L858R Ba/F3 cells (Homo sapiens, UniProt P00533, L858R, cells depend on it)
- Sequence (P00533 whole entry L858R): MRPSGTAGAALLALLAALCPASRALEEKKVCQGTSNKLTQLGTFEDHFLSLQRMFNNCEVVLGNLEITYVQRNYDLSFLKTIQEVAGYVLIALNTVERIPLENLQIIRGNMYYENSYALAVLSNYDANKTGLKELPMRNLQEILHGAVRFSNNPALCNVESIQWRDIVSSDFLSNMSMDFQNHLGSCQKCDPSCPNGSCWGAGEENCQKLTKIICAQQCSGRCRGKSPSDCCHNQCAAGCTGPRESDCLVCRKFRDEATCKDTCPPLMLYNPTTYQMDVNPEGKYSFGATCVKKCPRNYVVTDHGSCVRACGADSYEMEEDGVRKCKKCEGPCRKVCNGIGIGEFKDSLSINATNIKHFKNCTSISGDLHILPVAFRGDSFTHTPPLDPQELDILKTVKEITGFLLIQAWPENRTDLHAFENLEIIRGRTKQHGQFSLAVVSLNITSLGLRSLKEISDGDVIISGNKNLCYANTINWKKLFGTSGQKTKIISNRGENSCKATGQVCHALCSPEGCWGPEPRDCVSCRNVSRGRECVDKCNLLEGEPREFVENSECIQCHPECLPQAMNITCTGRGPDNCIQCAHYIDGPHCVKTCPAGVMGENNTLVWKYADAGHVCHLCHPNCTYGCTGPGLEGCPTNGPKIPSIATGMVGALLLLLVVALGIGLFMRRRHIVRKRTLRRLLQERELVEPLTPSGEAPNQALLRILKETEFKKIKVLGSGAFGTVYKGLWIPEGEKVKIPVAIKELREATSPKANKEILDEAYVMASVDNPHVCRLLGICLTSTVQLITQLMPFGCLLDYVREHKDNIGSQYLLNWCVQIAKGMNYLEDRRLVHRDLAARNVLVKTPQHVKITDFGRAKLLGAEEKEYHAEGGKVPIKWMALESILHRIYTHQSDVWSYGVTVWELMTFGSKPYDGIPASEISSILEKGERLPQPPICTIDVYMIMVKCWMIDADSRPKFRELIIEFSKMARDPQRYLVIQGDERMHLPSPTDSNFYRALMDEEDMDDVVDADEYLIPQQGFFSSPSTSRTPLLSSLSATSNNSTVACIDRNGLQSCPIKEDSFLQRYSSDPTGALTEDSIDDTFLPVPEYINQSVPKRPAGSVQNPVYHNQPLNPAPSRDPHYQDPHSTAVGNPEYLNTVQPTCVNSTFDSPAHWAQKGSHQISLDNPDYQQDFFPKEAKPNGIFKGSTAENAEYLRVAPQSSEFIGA
- assay-explanation: Ba/F3 cell proliferation (Cell Titer Glo), EGFR L858R
- Format: cell-based, murine
- protocol-conditions: 72 hours, Table 6, read-out: L858R BaF3
Provide the reported GI50 of each item.

The molecule listed as C=CC(=O)N1CCC(N2Cc3cnc(Nc4ccc(N5CCN(C)CC5)cc4)nc3N(C)C2=O)c2cccc(C(F)(F)F)c21 (centres unmarked) shows GI50 equal to 500 to 2500 nM

For record C=CC(=O)N1CC[C@H](N2Cc3cnc(Nc4ccc(N5CCN(C)CC5)cc4)nc3N(C3CC(O)C3)C2=O)c2cccc(C)c21 (some centres unmarked) the listed GI50 is < 100 nM

Lookup result for C=CC(=O)N1CCC(N2Cc3cnc(Nc4ccc(N5CCN(C)CC5)cc4)nc3N(C)C2=O)[C@@H](N)C1 (stereo in doubt) ; measured GI50: ≥ 2500 nM

Field GI50 (entry C=CC(=O)N1CCC(C)(N2Cc3cnc(Nc4cnn(CCO)c4)nc3N(C)C2=O)c2ccccc21 (centres unmarked) ) reads ≥ 2500 nM

Lab book: GI50 of C=CC(=O)N1Cc2ccccc2C(N2Cc3cnc(Nc4ccc(N5CCN(C)CC5)cc4)nc3N(C)C2=O)C1 (centres unmarked) noted as ≥ 2500 nM

Note to self: GI50 recorded for C=CC(=O)N1CCC(N2Cc3cnc(Nc4ccc(N5CCN(C)CC5)cc4)nc3N(C)C2=O)CC12CCC2 (centres unmarked) was ≥ 2500 nM

Entry C=CC(=O)N1CCC(N2Cc3cnc(Nc4cc(F)c(N5CCN(C)CC5)c(F)c4)nc3N(C)C2=O)c2ccccc21 (centres unmarked) — recorded GI50 = < 100 nM

So, C=CC(=O)Nc1cccc2[nH]cc(CN3Cc4cnc(Nc5ccc(N6CCN(C)CC6)cc5)nc4N(C)C3=O)c12 ? Its GI50 was ≥ 2500 nM

Reported GI50 ( C=CC(=O)N1CC[C@H](N2Cc3cnc(Nc4ccc(CS(C)(=O)=O)cc4)nc3N(C)C2=O)c2cccc(C)c21 ) = < 100 nM

Note to self: GI50 recorded for C=CC(=O)N1CCC12CC(N1Cc3cnc(Nc4ccc(N5CCN(C)CC5)cc4)nc3N(C)C1=O)C2 (centres unmarked) was 500 to 2500 nM

Reported GI50 for C=CC(=O)N1CCC(N2Cc3cnc(Nc4ccc(F)c(C#N)c4)nc3N(C)C2=O)c2ccccc21 (centres unmarked) was < 100 nM
